Reported inhibition at 3 µM values for a set of compounds
System: TGFβ signal
Assay: TGFβ signal inhibitory activity, (SBE)4-Luc reporter in A549 cells (Test Examples 1A and 1B)
Format: cell-based, human
Conditions: Homo sapiens, A549; test compound 3 µM; TGFβ-1 2 ng/ml, 4 hr; Table 1A; read-out: TGFβ inhibition rate, %
METRIC: inhibition at 3 µM (%)

1. Fc1cc2nccc(Oc3cc4cccnc4nc3-c3ccccc3)c2cc1F    54
2. COc1ccc2nccc(Oc3cc(C)c(C)nc3-c3ccccn3)c2n1    98
3. Cc1cc(Oc2ccnc3cc(Cl)c(C(N)=O)cc23)c(-c2ccccn2)nc1C    54
4. Cc1cc(Oc2ccnc3cccnc23)c(-c2ccccn2)nc1C    84
